Cited source for all entries: the supplement of paper PMC10338343

- Test system: MILI (PIWIL2) piRISC loaded with piRNA #1 (26 nt);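 further: 1 nM active piRISC with 0.1 nM target library at 33 °C single turnover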
- protocol_summary: pre-steady-state target cleavage rate (min^-1); guide: piRNA #1 5'p-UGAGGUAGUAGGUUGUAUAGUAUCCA; higher = faster piRNA-guided slicing of the target
- stated_conditions: auxiliary factor: 500 nM mouse GTSF1
// Not met strictly below 0.1 in pre-steady-state target cleavage rate; Met otherwise

sequence_content	classification
GGAGACCUUACUAUACAACCUAACUACCUCA	Not met
GGAGACGAUACUAUCACAACCUACUACCUCA	Met
GGAGACCAUACUAUACUACCUACUAGCUCA	Not met
GGAGACCUAUGAACACAACCUACUACCUCA	Not met
GGAGACGAUACUAUACAACCUACUACGAGA	Met
GGAGUGGAUACUAAACAACCUACUACCUCA	Met
GGAGACCAUACAAUAGAACCUACUACCUCA	Met
GGAGAGGAUACUAAUACAACCUACUACCUCA	Met
GGAGACCUUAACUAUACAACCUACUACCUCA	Met
GGAGAGGAUACUUUACAACCUACUACCUCA	Met
GGAGUGGAUACUAAACUACCUACUACCUCA	Met
GGAGACCAUACUAUACAUCCUACUACCUCA	Met

###

- System: MILI (PIWIL2) piRISC loaded with L1MC piRNA (26 nt);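 further: 1 nM active piRISC with 0.1 nM target library at 33 °C single turnover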
- protocol_summary: pre-steady-state target cleavage rate (min^-1); guide: L1MC piRNA 5'p-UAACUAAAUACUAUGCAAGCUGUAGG; MIWI and MILI are mouse PIWI proteins and EfPiwi is from a freshwater sponge; tags in brackets are library labels; higher = faster piRNA-guided slicing of the target
- stated_conditions: auxiliary factor: 500 nM mouse GTSF1
Catalogue of pre-steady-state target cleavage rate readings, one per entry.
recorded_metric: pre-steady-state target cleavage rate

sequence_content	target_of_assay	recorded_metric	assay_result
UCCUGGAUGUCCUUGCUUAGAAUUUAGUUA	MILI (PIWIL2) piRISC loaded with L1MC piRNA (26 nt)	pre-steady-state target cleavage rate	0.00442
UCCUGGUACAGCUUGGAUAGUAUUUAGUAA	MILI (PIWIL2) piRISC loaded with L1MC piRNA (26 nt)	pre-steady-state target cleavage rate	0.202
UCCUGGAUGACCUUGCAUAGAAUUUAGUUA	MILI (PIWIL2) piRISC loaded with L1MC piRNA (26 nt)	pre-steady-state target cleavage rate	0.023
UCCUGGAACACGAUGCAUAGUAUUUAGAAA	MILI (PIWIL2) piRISC loaded with L1MC piRNA (26 nt)	pre-steady-state target cleavage rate	0.072
UCCUGGAUGUCGAUGCAUAGUAAAUAGUUA	MILI (PIWIL2) piRISC loaded with L1MC piRNA (26 nt)	pre-steady-state target cleavage rate	0.0191
UCCUCCUCAGCUUGCAUAGUAUUUAGUUA	MILI (PIWIL2) piRISC loaded with L1MC piRNA (26 nt)	pre-steady-state target cleavage rate	0.258
UCCUGCUACAGCUUGCAUGGUAUUUAGUUA	MILI (PIWIL2) piRISC loaded with L1MC piRNA (26 nt)	pre-steady-state target cleavage rate	0.334
UCCUCCUACAGCUUGCAUAUGUAUUUAGUUA	MILI (PIWIL2) piRISC loaded with L1MC piRNA (26 nt)	pre-steady-state target cleavage rate	0.0106
UCCUGGUACAGCUUGCAUACUAAUUAGUUA	MILI (PIWIL2) piRISC loaded with L1MC piRNA (26 nt)	pre-steady-state target cleavage rate	0.0462
UCCUGGUACAGCUUGCAUUGUAUUUACUUA	MILI (PIWIL2) piRISC loaded with L1MC piRNA (26 nt)	pre-steady-state target cleavage rate	0.05
UCCUGGAACAGCUUGCAUAGUAUUAGUUA	MILI (PIWIL2) piRISC loaded with L1MC piRNA (26 nt)	pre-steady-state target cleavage rate	0.199
UCCUGCUUCAGCUUGGAUAGUAUUUAGUUA	MILI (PIWIL2) piRISC loaded with L1MC piRNA (26 nt)	pre-steady-state target cleavage rate	0.268
UCCUGGAACACCAUGCAUAGUAUUUAGUUA	MILI (PIWIL2) piRISC loaded with L1MC piRNA (26 nt)	pre-steady-state target cleavage rate	0.163
UCCUGGAUGAGCUUGGAUAGUAAUUAGUUA	MILI (PIWIL2) piRISC loaded with L1MC piRNA (26 nt)	pre-steady-state target cleavage rate	0.1
UCCUGGAUGAGCUUGCAUAGUAUUUGUUA	MILI (PIWIL2) piRISC loaded with L1MC piRNA (26 nt)	pre-steady-state target cleavage rate	0.118
UCCUGGAACAGGAUGCAUAGUAUUUAGUUA	MILI (PIWIL2) piRISC loaded with L1MC piRNA (26 nt)	pre-steady-state target cleavage rate	0.285
UCCUGGUACAGCUUGCAUAGUAUAAUGAAA	MILI (PIWIL2) piRISC loaded with L1MC piRNA (26 nt)	pre-steady-state target cleavage rate	0.0203
UCCUGCUACUGCUUGCUUAGUAUUUAGUUA	MILI (PIWIL2) piRISC loaded with L1MC piRNA (26 nt)	pre-steady-state target cleavage rate	0.202
UCCUGGAACAGCUUGGAUAGAAUUUAGUUA	MILI (PIWIL2) piRISC loaded with L1MC piRNA (26 nt)	pre-steady-state target cleavage rate	0.0521
UCCUGGUAGAGCUUGCAUAGUAUAUAGUUA	MILI (PIWIL2) piRISC loaded with L1MC piRNA (26 nt)	pre-steady-state target cleavage rate	0.207
UCCUGCUACAGCUUGCAUAGUAUUUAGUAUA	MILI (PIWIL2) piRISC loaded with L1MC piRNA (26 nt)	pre-steady-state target cleavage rate	0.292
UCCUGGAUCAGCAAGCAUAGUAUUUUCAAA	MILI (PIWIL2) piRISC loaded with L1MC piRNA (26 nt)	pre-steady-state target cleavage rate	0.024
UCCUGGAUCAGCUUGCAUAGUAUUUAGUGA	MILI (PIWIL2) piRISC loaded with L1MC piRNA (26 nt)	pre-steady-state target cleavage rate	0.237
UCCUCCUACAGGAUGCAUAGUAUUUAGUUA	MILI (PIWIL2) piRISC loaded with L1MC piRNA (26 nt)	pre-steady-state target cleavage rate	0.273
UCCUGGAUGAGCUUGCAUUGUAUUUAGUAA	MILI (PIWIL2) piRISC loaded with L1MC piRNA (26 nt)	pre-steady-state target cleavage rate	0.127
UCCUGGAAGAGCUUGCAUAGUAUUUACAAA	MILI (PIWIL2) piRISC loaded with L1MC piRNA (26 nt)	pre-steady-state target cleavage rate	0.0536
UCCUGGAUGUCGAUGCAUAGUAUUGUAGUUA	MILI (PIWIL2) piRISC loaded with L1MC piRNA (26 nt)	pre-steady-state target cleavage rate	0.0505
UCCUGCUACUCGUUGCAUAGUAUUUAGUUA	MILI (PIWIL2) piRISC loaded with L1MC piRNA (26 nt)	pre-steady-state target cleavage rate	0.242
UCCUGGAUGUCGUUGCCAUAGUAUUUAGUUA	MILI (PIWIL2) piRISC loaded with L1MC piRNA (26 nt)	pre-steady-state target cleavage rate	0.00586
UCCUGCUACAGCUUGCAUAGUAUAUUGUUA	MILI (PIWIL2) piRISC loaded with L1MC piRNA (26 nt)	pre-steady-state target cleavage rate	0.187
UCCUCCUACAGGAUGCAUAGUAUUUUCAAA	MILI (PIWIL2) piRISC loaded with L1MC piRNA (26 nt)	pre-steady-state target cleavage rate	0.0564
UCCUGCUACAGCUUGCAUAGUGAUUUAGUUA	MILI (PIWIL2) piRISC loaded with L1MC piRNA (26 nt)	pre-steady-state target cleavage rate	0.0204
UCCUCCUACAGCUUGCAUACUAAUUAGUUA	MILI (PIWIL2) piRISC loaded with L1MC piRNA (26 nt)	pre-steady-state target cleavage rate	0.0267
UCCUGGAUGUCCUUGCAUAGUAAAAAGUUA	MILI (PIWIL2) piRISC loaded with L1MC piRNA (26 nt)	pre-steady-state target cleavage rate	0.0137
UCCUGGAACACCUUGCUUAGUAUUUAGUUA	MILI (PIWIL2) piRISC loaded with L1MC piRNA (26 nt)	pre-steady-state target cleavage rate	0.155
UCCUCCUACAGCAUCCAUAGUAUUUAGUUA	MILI (PIWIL2) piRISC loaded with L1MC piRNA (26 nt)	pre-steady-state target cleavage rate	0.175
UCCUGGAACAGCUUGCAUAGUAUUUAGUGUA	MILI (PIWIL2) piRISC loaded with L1MC piRNA (26 nt)	pre-steady-state target cleavage rate	0.231
UCCUGGAUGUGCUUGCAUAGUUAAUAGUUA	MILI (PIWIL2) piRISC loaded with L1MC piRNA (26 nt)	pre-steady-state target cleavage rate	0.00482
UCCUCACUACAGCUUGCAUAGUAUUUAGUUA	MILI (PIWIL2) piRISC loaded with L1MC piRNA (26 nt)	pre-steady-state target cleavage rate	0.259
UCCUGGAUGAGCUAGCAUAGUUUUUAGUUA	MILI (PIWIL2) piRISC loaded with L1MC piRNA (26 nt)	pre-steady-state target cleavage rate	0.0185
UCCUGGAACAGCUUGCAUAGUUUUAGUUA	MILI (PIWIL2) piRISC loaded with L1MC piRNA (26 nt)	pre-steady-state target cleavage rate	0.0123
UCCUGGAUGUCCUUGCAUAGUAUUUAGUGUA	MILI (PIWIL2) piRISC loaded with L1MC piRNA (26 nt)	pre-steady-state target cleavage rate	0.0384
UCCUGGAUGUCCUUGACAUAGUAUUUAGUUA	MILI (PIWIL2) piRISC loaded with L1MC piRNA (26 nt)	pre-steady-state target cleavage rate	0.0214
UCCUGGAACUGCUUGGAUAGUAUUUAGUUA	MILI (PIWIL2) piRISC loaded with L1MC piRNA (26 nt)	pre-steady-state target cleavage rate	0.222
UCCUCCUACAGCUUGCAUAGUAUUUCAGUUA	MILI (PIWIL2) piRISC loaded with L1MC piRNA (26 nt)	pre-steady-state target cleavage rate	0.463
UCCUCCUACAGCUUGCAUAGUUAAUACAAA	MILI (PIWIL2) piRISC loaded with L1MC piRNA (26 nt)	pre-steady-state target cleavage rate	0.014
UCCUGGAUGAGCUACCAUAGUAUUUAGAAA	MILI (PIWIL2) piRISC loaded with L1MC piRNA (26 nt)	pre-steady-state target cleavage rate	0.00557
UCCUGGUACAGCUUGCAUAGUACUUAGUUA	MILI (PIWIL2) piRISC loaded with L1MC piRNA (26 nt)	pre-steady-state target cleavage rate	0.187
UCCUGGAACAGCUUGCAUAGUAUAUAGAUA	MILI (PIWIL2) piRISC loaded with L1MC piRNA (26 nt)	pre-steady-state target cleavage rate	0.0877
UCCUGGAUGUCCUUGCAUAGUUUUUAGAUA	MILI (PIWIL2) piRISC loaded with L1MC piRNA (26 nt)	pre-steady-state target cleavage rate	0.00584
UCCUGGAUGUCCAUGCAUAGUAUUUACUUA	MILI (PIWIL2) piRISC loaded with L1MC piRNA (26 nt)	pre-steady-state target cleavage rate	0.0292
UCCUGGAACUCGUUGCAUAGUAUUUUCAAA	MILI (PIWIL2) piRISC loaded with L1MC piRNA (26 nt)	pre-steady-state target cleavage rate	0.0397
UCCUGCUACAGCUUGCAUAGAUUUUUCAAA	MILI (PIWIL2) piRISC loaded with L1MC piRNA (26 nt)	pre-steady-state target cleavage rate	0.0091
UCCUGGUACAGCUUGCAUAGUAUAAACAAA	MILI (PIWIL2) piRISC loaded with L1MC piRNA (26 nt)	pre-steady-state target cleavage rate	0.0195
UCCUGGUACAGCUUGCAUAGUAUAAAGUAA	MILI (PIWIL2) piRISC loaded with L1MC piRNA (26 nt)	pre-steady-state target cleavage rate	0.0705
